# Assay System: PD-1 (UniProt Q15116 25-167, limits assumed)
# Sequence (Q15116 25-167 limits assumed): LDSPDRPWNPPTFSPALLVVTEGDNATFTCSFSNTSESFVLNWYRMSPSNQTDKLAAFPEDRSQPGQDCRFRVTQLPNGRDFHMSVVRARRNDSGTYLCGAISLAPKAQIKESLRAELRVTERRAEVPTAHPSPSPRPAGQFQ
# Assay Comment: ELISA; Cys mutant, no arm
Can you tell me binding activity, % of wild type for the items I'm about to list?
Give bare numbers, in %.

The following binders have reported results that may help.
>>> result_value("anti-PD-1 antibody 2 HC Ser17Cys (antibody, human IgG4 S228P, kappa, V domains shown, arm on Cys17 as named in each row) VH: QVQLVESGGGVVQPGRCLRLDCKASGITFSNSGMHWVRQAPGKGLEWVAVIWYDGSKRYYADSVKGRFTISRDNSKNTLFLQMNSLRAEDTAVYYCATNDDYWGQGTLVTVSS VL: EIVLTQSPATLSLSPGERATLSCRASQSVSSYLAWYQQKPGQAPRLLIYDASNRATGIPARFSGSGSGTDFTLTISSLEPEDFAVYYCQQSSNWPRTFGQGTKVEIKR")
85
>>> result_value("anti-PD-1 antibody 2 HC Ala92Cys (antibody, human IgG4 S228P, kappa, V domains shown, arm on Cys92 as named in each row) VH: QVQLVESGGGVVQPGRSLRLDCKASGITFSNSGMHWVRQAPGKGLEWVAVIWYDGSKRYYADSVKGRFTISRDNSKNTLFLQMNSLRAEDTCVYYCATNDDYWGQGTLVTVSS VL: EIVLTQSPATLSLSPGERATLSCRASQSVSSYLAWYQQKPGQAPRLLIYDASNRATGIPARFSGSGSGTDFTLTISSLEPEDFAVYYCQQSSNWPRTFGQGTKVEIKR")
85
>>> result_value("anti-PD-1 antibody 2 HC Ser30Cys (antibody, human IgG4 S228P, kappa, V domains shown, arm on Cys30 as named in each row) VH: QVQLVESGGGVVQPGRSLRLDCKASGITFCNSGMHWVRQAPGKGLEWVAVIWYDGSKRYYADSVKGRFTISRDNSKNTLFLQMNSLRAEDTAVYYCATNDDYWGQGTLVTVSS VL: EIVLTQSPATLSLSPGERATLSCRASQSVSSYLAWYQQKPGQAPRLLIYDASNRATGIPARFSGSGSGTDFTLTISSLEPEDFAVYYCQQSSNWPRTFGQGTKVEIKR")
89.7

Batch request: binding activity, % of wild type for each of the following binders.
1. anti-PD-1 antibody 2 HC Gly15Cys (antibody, human IgG4 S228P, kappa, V domains shown, arm on Cys15 as named in each row) VH: QVQLVESGGGVVQPCRSLRLDCKASGITFSNSGMHWVRQAPGKGLEWVAVIWYDGSKRYYADSVKGRFTISRDNSKNTLFLQMNSLRAEDTAVYYCATNDDYWGQGTLVTVSS VL: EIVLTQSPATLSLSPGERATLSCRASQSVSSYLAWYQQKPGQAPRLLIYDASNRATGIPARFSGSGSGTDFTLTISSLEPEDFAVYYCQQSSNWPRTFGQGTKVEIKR
2. anti-PD-1 antibody 2 HC Gly8Cys (antibody, human IgG4 S228P, kappa, V domains shown, arm on Cys8 as named in each row) VH: QVQLVESCGGVVQPGRSLRLDCKASGITFSNSGMHWVRQAPGKGLEWVAVIWYDGSKRYYADSVKGRFTISRDNSKNTLFLQMNSLRAEDTAVYYCATNDDYWGQGTLVTVSS VL: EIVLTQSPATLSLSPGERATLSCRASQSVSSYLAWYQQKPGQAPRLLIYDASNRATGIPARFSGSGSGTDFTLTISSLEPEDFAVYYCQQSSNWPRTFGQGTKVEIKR
3. anti-PD-1 antibody 2 HC Thr28Cys (antibody, human IgG4 S228P, kappa, V domains shown, arm on Cys28 as named in each row) VH: QVQLVESGGGVVQPGRSLRLDCKASGICFSNSGMHWVRQAPGKGLEWVAVIWYDGSKRYYADSVKGRFTISRDNSKNTLFLQMNSLRAEDTAVYYCATNDDYWGQGTLVTVSS VL: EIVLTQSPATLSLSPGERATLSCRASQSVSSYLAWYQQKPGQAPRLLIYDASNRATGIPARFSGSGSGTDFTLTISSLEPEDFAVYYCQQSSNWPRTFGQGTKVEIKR
4. anti-PD-1 antibody 2 HC Ser75Cys (antibody, human IgG4 S228P, kappa, V domains shown, arm on Cys75 as named in each row) VH: QVQLVESGGGVVQPGRSLRLDCKASGITFSNSGMHWVRQAPGKGLEWVAVIWYDGSKRYYADSVKGRFTISRDNCKNTLFLQMNSLRAEDTAVYYCATNDDYWGQGTLVTVSS VL: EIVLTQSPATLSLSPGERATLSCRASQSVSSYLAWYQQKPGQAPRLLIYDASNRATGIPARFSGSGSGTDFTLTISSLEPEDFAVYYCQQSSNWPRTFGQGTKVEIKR
5. anti-PD-1 antibody 2 HC Gly42Cys (antibody, human IgG4 S228P, kappa, V domains shown, arm on Cys42 as named in each row) VH: QVQLVESGGGVVQPGRSLRLDCKASGITFSNSGMHWVRQAPCKGLEWVAVIWYDGSKRYYADSVKGRFTISRDNSKNTLFLQMNSLRAEDTAVYYCATNDDYWGQGTLVTVSS VL: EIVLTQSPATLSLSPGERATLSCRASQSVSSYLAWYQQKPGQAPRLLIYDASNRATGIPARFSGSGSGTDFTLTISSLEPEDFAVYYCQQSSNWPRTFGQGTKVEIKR
6. anti-PD-1 antibody 2 HC Thr91Cys (antibody, human IgG4 S228P, kappa, V domains shown, arm on Cys91 as named in each row) VH: QVQLVESGGGVVQPGRSLRLDCKASGITFSNSGMHWVRQAPGKGLEWVAVIWYDGSKRYYADSVKGRFTISRDNSKNTLFLQMNSLRAEDCAVYYCATNDDYWGQGTLVTVSS VL: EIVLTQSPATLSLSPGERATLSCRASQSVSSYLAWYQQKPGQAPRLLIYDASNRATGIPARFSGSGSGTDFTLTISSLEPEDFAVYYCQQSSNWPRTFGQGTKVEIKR
7. anti-PD-1 antibody 2 HC Gly44Cys (antibody, human IgG4 S228P, kappa, V domains shown, arm on Cys44 as named in each row) VH: QVQLVESGGGVVQPGRSLRLDCKASGITFSNSGMHWVRQAPGKCLEWVAVIWYDGSKRYYADSVKGRFTISRDNSKNTLFLQMNSLRAEDTAVYYCATNDDYWGQGTLVTVSS VL: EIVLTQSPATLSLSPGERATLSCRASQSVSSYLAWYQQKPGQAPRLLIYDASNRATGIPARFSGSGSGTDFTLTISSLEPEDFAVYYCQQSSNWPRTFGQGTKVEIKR

result:
1. 85.6
2. 93.2
3. 86.4
4. 96.3
5. 83.4
6. 86
7. 99.3
